Listing: inhibition of selected compounds
assay: kanamycin survival loss of SKKanGAS strain – BacTiter-Glo luminescence, streptokinase expression inhibitor project, primary screen (AID 1662);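 further: strain carries kanamycin resistance gene driven by streptokinase promoter and grows in 40 µg/ml kanamycin; loss of luminescence reflects streptokinase promoter inhibition or plain growth inhibition; 0% = median of DMSO wells and 100% = positive control at its reference dose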; settings: S. pyogenes SKKanGAS, kanamycin growth, 6 h, at 7.5 µM, active compounds read high
About 4,000 (1.3%) of roughly 300,000 compounds were called active. This is one part of a sample in which actives are shown more often than they occur.
METRIC NAME: inhibition

INSERT INTO measurements (compound, observed_measurement) VALUES
  ('CC1(C(=O)NNC(=S)NCC2CCCO2)CC1(Cl)Cl (stereo not given)', '2.55% (inactive)'),
  ('O=[N+]([O-])c1ccc(S(=O)(=O)Nc2cccc(-c3ccc(N4CCCC4)nn3)c2)cc1', '0.0506% (inactive)'),
  ('COc1ccc2[nH]c(=O)c(CNc3ccc(C)c(C)c3)cc2c1', '26.7% (inactive)'),
  ('CC(=O)Nc1ccc(Nc2ncnc3c2nnn3Cc2ccccc2Cl)cc1', '1.15% (inactive)'),
  ('Cc1nnc(SCC(=O)Nc2cccc(N)c2)n1-c1ccccc1', '8.19% (inactive)'),
  ('Cc1c(Cl)c([N+](=O)[O-])nn1Cc1ccc(C(=O)N/N=C\c2cc(Cl)ccc2O)o1', '96.5% (active)'),
  ('CC1CC(=O)N(CC(=O)Nc2cccc(Cl)c2)c2ccccc2S1(=O)=O (stereo not given)', '-1.88% (inactive)'),
  ('Cc1c(Cl)c([N+](=O)[O-])nn1CCCC(=O)Nc1cc(Cl)ccc1Cl', '-2.88% (inactive)'),
  ('O=S(=O)(Nc1ccc(-c2ccc(N3CCOCC3)nn2)cc1)c1cc(Cl)ccc1Cl', '18.8% (inactive)'),
  ('O=C(OCc1ccc(-c2ccccc2)cc1)c1cccc(O)c1', '54.9% (active)');

---

experiment: kanamycin survival loss of SKKanGAS strain – BacTiter-Glo luminescence, streptokinase expression inhibitor project, primary screen (AID 1662); details: S. pyogenes SKKanGAS, kanamycin growth, 6 h, at 7.5 µM, active compounds read high
Out of some 300,000 compounds screened, about 4,000 (1.3%) were called active. Only a selection was taken, and actives are over-represented in it overall.
METRIC NAME: inhibition (%)

INSERT INTO measurements (compound, metric_name, observed_measurement) VALUES
  ('COc1cc(/C=C2\CCCc3c2nc2ccccc2c3C(=O)O)cc(Cl)c1O', 'inhibition', 15.8),
  ('CCOC(=O)c1[nH]cnc1C(=O)Nc1ccccc1C', 'inhibition', 10.7),
  ('Nc1nonc1-n1nnc(C(=O)N/N=C/c2ccccc2O)c1CN1CCCC1', 'inhibition', -2.71),
  ('Cc1ccc(SCc2c(C(=O)N/N=C/c3cccnc3)nnn2-c2nonc2N)cc1', 'inhibition', 3.15),
  ('COc1ccc(Cl)cc1C(=O)NNC(=S)NC1CCCC1', 'inhibition', -3.8),
  ('CC1CCc2c(nc3ncnn3c2Nc2ccc(OC(F)(F)F)cc2)C1 (stereo unspecified)', 'inhibition', 2.5),
  ('CCOP(=O)(OCC)C(Nc1cccc(C)c1)c1ccc(F)cc1 (stereo unspecified)', 'inhibition', -2.54),
  ('COc1ccc(Cl)cc1C(=O)NNC(=S)NC(=O)/C=C/c1ccco1', 'inhibition', 80.2),
  ('CCCn1c(C2CCCN2c2nc(-c3ccc(C)cc3)cs2)nc2cc(Cl)c(N3CCCCC3)cc21 (stereo unspecified)', 'inhibition', 9.01),
  ('C=CCNC(=S)NNC(=O)c1cc(Cl)ccc1OC', 'inhibition', 3.23),
  ('COCc1c(C(=O)OCc2c(C)noc2C)oc2ccccc12', 'inhibition', 2.6),
  ('NC(=O)c1ccc(NC(=O)COC(=O)c2c3c(nc4ccccc24)/C(=C\c2ccc4c(c2)OCO4)CCC3)cc1', 'inhibition', 64),
  ('O=C(O)c1ccccc1NC(=S)NC(NC(=O)c1ccccc1[N+](=O)[O-])C(Cl)(Cl)Cl (stereo unspecified)', 'inhibition', -2.95),
  ('C/C(CC(C)C)=N\Oc1nc(C)cc(C)n1', 'inhibition', -4.06),
  ('Cc1cccc(-n2nc3c(c2NC(=O)c2cc4ccccc4o2)CS(=O)(=O)C3)c1', 'inhibition', 1.09),
  ('Cc1ccc(-c2csc(N3CCN(c4cc5c(cc4Cl)nc(-c4ccncc4)n5CCOCCO)CC3)n2)cc1', 'inhibition', 47.5),
  ('Cc1ccc(NC(=O)c2nc[nH]c2C(=O)N[C@@H](CCCCNC(=O)OC(C)(C)C)C(=O)OC(C)(C)C)cc1', 'inhibition', 76.8),
  ('CCOC(=O)c1ccc(NC(=O)c2nc[nH]c2C(=O)NCc2ccccc2)cc1', 'inhibition', 18.8),
  ('C[C@H](NC(=O)c1nc[nH]c1C(=O)N[C@@H](C)C(=O)OC(C)(C)C)C(=O)OC(C)(C)C', 'inhibition', 1.23),
  ('CNC(=O)c1[nH]cnc1C(=O)N[C@@H](CC(C)C)C(=O)OC(C)(C)C', 'inhibition', -5.44),
  ('Nc1nonc1-n1nnc(C(=O)N/N=C/c2cc(Br)ccc2O)c1CSC1=NCCS1', 'inhibition', 107);

---

assay: kanamycin survival loss of SKKanGAS strain – BacTiter-Glo luminescence, streptokinase expression inhibitor project, primary screen (AID 1662);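 further: strain carries kanamycin resistance gene driven by streptokinase promoter and grows in 40 µg/ml kanamycin; loss of luminescence reflects streptokinase promoter inhibition or plain growth inhibition; 0% = median of DMSO wells and 100% = positive control at its reference dose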; details: S. pyogenes SKKanGAS, kanamycin growth, 6 h, at 7.5 µM, active compounds read high
The whole screen tested about 300,000 compounds, of which about 4,000 (1.3%) were called active. Many of the other results were omitted from the sample, so actives are more common in it than they were.
METRIC NAME: inhibition

INSERT INTO results (compound, observed_measurement) VALUES
  ('Cc1nc(NC(=O)c2cccc(Cl)c2)sc1-c1csc(Nc2cccc(Cl)c2)n1', '25.6% (inactive)'),
  ('O=C(CC1SC(=Nc2ccccc2F)N(CCN2CCOCC2)C1=O)Nc1ccc(F)cc1F (stereo unspecified)', '-5.01% (inactive)'),
  ('CC(CC(=O)Nc1cc(C(F)(F)F)ccc1Cl)c1ccccc1 (stereo unspecified)', '24.4% (inactive)'),
  ('C[C@H]1[C@H]2c3nc4ccccc4n3C[C@H]1ON2C1CCCCC1', '-3.38% (inactive)'),
  ('COc1ccc(N=Nc2c(-c3ccc(OC)cc3)[nH]oc2=O)cc1', '6.47% (inactive)'),
  ('O=C(NCc1ccccc1)C(c1ccco1)N(C(=O)c1csnn1)c1ccccc1F (stereo unspecified)', '1.53% (inactive)'),
  ('O=c1cc(C(F)(F)F)[nH]c(=O)n1C1CCCCC1', '11.3% (inactive)'),
  ('COC(=O)c1cc(CNC(=O)CC(C)c2ccccc2)ccc1OC (stereo unspecified)', '-1.27% (inactive)'),
  ('O=C(CNC(=O)c1ccc(Br)o1)Nc1ccccc1', '-5.14% (inactive)'),
  ('CC(C)(C)C(=O)NNC(=O)c1ccc(Oc2cc(Cl)cc(Cl)c2)o1', '0.127% (inactive)'),
  ('C/C(=N\NC(=O)c1ccc(C)cc1)C1C(=O)c2ccccc2C1=O', '52.3% (active)');

---

The entries below are paired with their reported inhibition.
experiment: kanamycin survival loss of SKKanGAS strain – BacTiter-Glo luminescence, streptokinase expression inhibitor project, primary screen (AID 1662);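 further: strain carries kanamycin resistance gene driven by streptokinase promoter and grows in 40 µg/ml kanamycin; loss of luminescence reflects streptokinase promoter inhibition or plain growth inhibition; 0% = median of DMSO wells and 100% = positive control at its reference dose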; details: S. pyogenes SKKanGAS, kanamycin growth, 6 h, at 7.5 µM, active compounds read high
In all, about 300,000 compounds went through this assay and about 4,000 (1.3%) were called active. The sample as a whole holds a higher share of actives than the screen did.
METRIC NAME: inhibition (%)

INSERT INTO assay_data (sample_smiles, metric_name, observed_measurement) VALUES
  ('Oc1cccc(/C=N/Nc2ccc(Cl)nn2)c1O', 'inhibition', -9.25),
  ('Clc1ccc(C2=CSC3=Nc4cccc5cccc(c45)N23)cc1', 'inhibition', 58.7),
  ('CCOc1cc(-c2cc(-c3ccc(NC(C)=O)cc3)nc(N)c2C#N)ccc1O', 'inhibition', 83.8),
  ('COc1ccc(CCNC(=O)COC(=O)Cc2cc(OC)c(OC)c(OC)c2)cc1', 'inhibition', 1.27),
  ('COc1cccc2c(N/N=C/c3ccco3)cc(C)nc12', 'inhibition', -8.63),
  ('CCOc1cc(-c2cc(-c3ccc(OC)cc3)nc(N)c2C#N)ccc1O', 'inhibition', 30.5);

---

experiment: kanamycin survival loss of SKKanGAS strain – BacTiter-Glo luminescence, streptokinase expression inhibitor project, primary screen (AID 1662);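 further: strain carries kanamycin resistance gene driven by streptokinase promoter and grows in 40 µg/ml kanamycin; loss of luminescence reflects streptokinase promoter inhibition or plain growth inhibition; 0% = median of DMSO wells and 100% = positive control at its reference dose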; details: S. pyogenes SKKanGAS, kanamycin growth, 6 h, at 7.5 µM, active compounds read high
The campaign covered roughly 300,000 compounds. About 4,000 (1.3%) were called active. Only a selection was taken, and actives are over-represented in it overall.
METRIC NAME: inhibition (%)

INSERT INTO results (compound, metric_name, unit_abbrev, observed_measurement) VALUES
  ('CCCCC(=O)NNC(=S)NC(=O)C(c1ccccc1)c1ccccc1', 'inhibition', '%', 85.9),
  ('CCOC(=O)c1cc2c(=O)n3ccccc3nc2n(CC(C)C)c1=NC(=O)c1c(-c2c(F)cccc2Cl)noc1C', 'inhibition', '%', 18.2),
  ('CCn1c(N)c(Br)c(=O)[nH]c1=O', 'inhibition', '%', 0.526),
  ('COc1ccc(C(=O)NC2=NCCS2)c(OC)c1', 'inhibition', '%', -2.91),
  ('CC1CN(S(=O)(=O)c2cccc(C(F)(F)F)c2)CN1C(=O)N1CCOCC1 (stereo not drawn)', 'inhibition', '%', 0.316),
  ('CCc1ccc2nc3sc(C(=O)Nc4nnc(CC)s4)c(N)c3cc2c1', 'inhibition', '%', 95.3),
  ('Cn1sc(NC(=O)c2ccccc2)nc1=O', 'inhibition', '%', 1.73),
  ('CNC(=S)N/N=C/c1cn(Cc2ccc(C)cc2)c2ccccc12', 'inhibition', '%', 53.8),
  ('CCC(c1nnc(SCC(=O)NNC(=O)c2ccccc2)n1Cc1ccccc1)N(C)C (stereo not drawn)', 'inhibition', '%', -9.47),
  ('CC(C)CCNC(=O)CCNS(=O)(=O)c1ccc(Cl)cc1', 'inhibition', '%', -4.22),
  ('O=C(NCC(c1ccco1)N1CCc2ccccc2C1)c1ccccc1Cl (stereo not drawn)', 'inhibition', '%', 17.4),
  ('COc1cc(/C=C(\C#N)c2nc3c(s2)CC(C)CC3)ccc1O (stereo not drawn)', 'inhibition', '%', 10.1),
  ('COCCSc1nnc(NC(=O)CCS(=O)(=O)Cc2ccccc2)s1', 'inhibition', '%', -1.08),
  ('COc1ccc(C(=O)Nc2ccc(C3(C#N)CCCC3)cc2)cc1OC', 'inhibition', '%', 0.181),
  ('CCc1nnc(NC(=O)c2cccc(S(=O)(=O)N(C)c3ccc(OC)cc3)c2)s1', 'inhibition', '%', 4.1),
  ('CCCCCCSc1nsc(N)n1', 'inhibition', '%', 5.66),
  ('Cn1c(=O)oc2cc(S(=O)(=O)NCCC(=O)NCc3ccccc3Cl)ccc21', 'inhibition', '%', 2.05),
  ('CC(C)C(=O)Nc1cccc(NC(=S)NC(=O)C(c2ccccc2)c2ccccc2)c1', 'inhibition', '%', 22.1),
  ('CC(=O)Nc1ccc(NC(=O)C(C)n2c3ccccc3c3nc(=O)cc(C)n32)cc1 (stereo not drawn)', 'inhibition', '%', 3.43),
  ('OCc1ccc(-c2ccccc2)c(-c2ccccc2)c1', 'inhibition', '%', -11.9),
  ('NC(=O)c1nnsc1-c1ccc(-c2snnc2C(N)=O)cc1', 'inhibition', '%', 2.07),
  ('Cc1noc(C)c1CSCC(=O)Nc1nc2ccc(Oc3ccccc3)cc2s1', 'inhibition', '%', 51.3),
  ('Cn1c(-c2ccc(C(=O)c3ccccc3)s2)nc2ccccc21', 'inhibition', '%', -1.65);
